Source listed as ChEMBL document CHEMBL3217569.

System under test: Hexokinase-4 (Homo sapiens, UniProt P35557)
Sequence (P35557 whole entry): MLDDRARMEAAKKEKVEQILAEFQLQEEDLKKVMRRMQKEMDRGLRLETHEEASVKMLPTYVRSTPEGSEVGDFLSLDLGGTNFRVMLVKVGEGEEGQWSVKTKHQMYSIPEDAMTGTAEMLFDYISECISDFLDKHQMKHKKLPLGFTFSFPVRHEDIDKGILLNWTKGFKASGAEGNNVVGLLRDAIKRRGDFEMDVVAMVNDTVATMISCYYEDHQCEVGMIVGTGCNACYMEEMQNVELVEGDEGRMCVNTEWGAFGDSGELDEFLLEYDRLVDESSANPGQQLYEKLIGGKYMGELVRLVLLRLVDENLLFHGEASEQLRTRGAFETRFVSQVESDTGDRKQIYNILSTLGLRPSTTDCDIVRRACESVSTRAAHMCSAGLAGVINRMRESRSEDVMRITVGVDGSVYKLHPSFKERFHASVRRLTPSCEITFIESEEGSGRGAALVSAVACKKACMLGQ
Protocol details: Activation of recombinant human His6-tagged glucokinase by G6PDH-coupled spectrophotometry
Readout: EC50 (nM)

Solved cases below.
[
  {
    "Compound": "CNC(=O)Cn1cc(-c2cnc(NC(=O)C(CC3CCOCC3)c3ccc(S(=O)(=O)C4CC4)cc3)s2)nn1 (racemic)",
    "Readout": "EC50",
    "Value reported": 170
  },
  {
    "Compound": "O=C(Nc1ncc(-c2cn(CC(=O)N3CCOCC3)nn2)s1)C(CC1CCOCC1)c1ccc(S(=O)(=O)C2CC2)cc1 (racemic)",
    "Readout": "EC50",
    "Value reported": 640
  },
  {
    "Compound": "COC(=O)[C@H](CC(C)C)NC(=O)c1cnc(NC(=O)C(CC2CCOCC2)c2ccc(S(=O)(=O)C3CC3)cc2)s1 (mixture of isomers)",
    "Readout": "EC50",
    "Value reported": 1520
  },
  {
    "Compound": "O=C(O)CCn1cc(-c2cnc(NC(=O)C(CC3CCOCC3)c3ccc(S(=O)(=O)C4CC4)cc3)s2)nn1 (racemic)",
    "Readout": "EC50",
    "Value reported": 1350
  }
]

(I) COC(=O)CCNC(=O)c1cnc(NC(=O)C(CC2CCOCC2)c2ccc(S(=O)(=O)C3CC3)cc2)s1 (racemic)
(II) O=C(O)CCNC(=O)c1cnc(NC(=O)C(CC2CCOCC2)c2ccc(S(=O)(=O)C3CC3)cc2)s1 (racemic)
Ask: // which entry reports the smaller EC50, I or II ? Output the label that corresponds to your choice.
Result: I

----------
// reported EC50 per item
System under test: Hexokinase-4 (Homo sapiens)
Protocol details: Activation of recombinant human His6-tagged glucokinase by G6PDH-coupled spectrophotometry

Ask: Suppose we examine the molecule CC(C)C[C@H](NC(=O)c1cnc(NC(=O)C(CC2CCOCC2)c2ccc(S(=O)(=O)C3CC3)cc2)s1)C(=O)O (mixture of isomers) ; what EC50 value has been reported?
Result: > 20 µM

Ask: Suppose we examine the molecule CCNC(=O)Cn1cc(-c2cnc(NC(=O)C(CC3CCOCC3)c3ccc(S(=O)(=O)C4CC4)cc3)s2)nn1 (racemic) ; what EC50 value has been reported?
Result: > 20 µM

Ask: Suppose we examine the molecule CCN(CC)C(=O)Cn1cc(-c2cnc(NC(=O)C(CC3CCOCC3)c3ccc(S(=O)(=O)C4CC4)cc3)s2)nn1 (racemic) ; what EC50 value has been reported?
Result: 0.21 µM
